These entries and their values trace back to paper PMC7617399.

system: TREx BCBL1-Rta cells; experiment: MTS cell viability assay, TREx BCBL1-Rta; format: cell-based, human; settings: read-out: CC50 24 h (μM) (Cell viability); TREx BCBL1-Rta, MTS, 24 h; mean ± s.e.m.
measurement.name: CC50 (µM)
All answers are understood in µM, so give the number only.

Query: Any idea what its CC50 is? The compound is CCc1cc(-c2n[nH]c(C)c2-c2ccc3c(c2)OCCO3)c(O)cc1O
Reply: 21.1

---

assay: MTS cell viability assay, TREx BCBL1-Rta; assay type: cell-based, human; conditions: human, TREx BCBL1-Rta cells
measurement.name: CC50 at 72 h (µM)
All answers are understood in µM, so give the number only.

Query: Any idea what its CC50 at 72 h is? The compound is CCc1cc(-c2n[nH]c(C)c2-c2ccc(OC)cc2)c(O)cc1O [Cmpd. 3]
Reply: 14.7

---

biological target: purified recombinant UAP56 (GST-UAP56) (Homo sapiens, UniProt Q13838); assay: UAP56 ATPase assay
Sequence (Q13838 whole entry): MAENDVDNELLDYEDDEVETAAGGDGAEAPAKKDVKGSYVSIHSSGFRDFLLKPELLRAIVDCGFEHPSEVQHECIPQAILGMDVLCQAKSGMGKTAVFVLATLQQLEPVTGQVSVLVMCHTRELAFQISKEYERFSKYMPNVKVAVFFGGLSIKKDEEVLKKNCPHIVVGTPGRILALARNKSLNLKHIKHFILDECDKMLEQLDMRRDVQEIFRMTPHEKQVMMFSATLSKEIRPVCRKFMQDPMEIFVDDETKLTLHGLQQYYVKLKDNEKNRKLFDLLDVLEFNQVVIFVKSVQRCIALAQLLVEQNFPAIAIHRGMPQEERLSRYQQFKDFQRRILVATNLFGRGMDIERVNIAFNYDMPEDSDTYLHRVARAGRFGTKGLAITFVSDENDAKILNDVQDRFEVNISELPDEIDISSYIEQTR
Assignment: determine reported IC50 for the given molecules.

Query: Any idea what its IC50 is? The molecule is CCc1cc(-c2n[nH]c(C)c2-c2ccc(OC)cc2)c(O)cc1O
Reply: 88.7 µM

Query: Any idea what its IC50 is? The molecule is CCc1cc(-c2n[nH]c(C(=O)O)c2-c2ccc(OC)cc2)c(O)cc1O
Reply: > 1000 µM

---

target: recombinant GST-UAP56 (Homo sapiens); experiment: Microscale thermophoresis binding to UAP56; conditions: read-out: KD (microscale thermophoresis); FITC-labelled GST-UAP56, 37°C
measurement.name: Kd
The reply should read as a number followed by its unit.

Query: Any idea what its Kd is? The molecule is Nc1ncnc2c1ncn2[C@@H]1O[C@H](COP(=O)(O)OP(=O)(O)OP(=O)(O)O)[C@@H](O)[C@H]1O [ATP]
Reply: 30.1 µM

Query: Any idea what its Kd is? The molecule is CCc1cc(-c2n[nH]c(C)c2-c2ccc3c(c2)OCCO3)c(O)cc1O [CCT018159]
Reply: 76 µM

---

assay: MTS cell viability assay, TREx BCBL1-Rta; assay type: cell-based, human; settings: human, TREx BCBL1-Rta cells
Assignment: determine reported CC50 at 24 h for the given molecules.

Query: Any idea what its CC50 at 24 h is? The molecule is CCc1cc(-c2n[nH]c(C)c2-c2ccc(OC)cc2)c(O)cc1O
Reply: 27.9 µM

Query: Any idea what its CC50 at 24 h is? The molecule is CCc1cc(-c2n[nH]c(C(=O)O)c2-c2ccc(OC)cc2)c(O)cc1O
Reply: ~820 µM

---

test system: KSHV minor capsid protein (mCP) expression in TREx BCBL1-Rta cells; assay: Viral late protein mCP expression; type: cell-based; details: Human gammaherpesvirus 8, 24 h, read-out: EC50 24 h (μM) (mCP expression)
measurement.name: EC50 (µM)
All answers are understood in µM, so give the number only.

Query: Any idea what its EC50 is? The compound is CCc1cc(-c2n[nH]c(C)c2-c2ccc(OC)cc2)c(O)cc1O
Reply: 2.4
